tested target: ADP-Glc PPase (ADP-glucose pyrophosphorylase) (Mycobacterium tuberculosis, UniProt P9WN43)
Construct: gene glgC
Sequence (P9WN43 whole entry): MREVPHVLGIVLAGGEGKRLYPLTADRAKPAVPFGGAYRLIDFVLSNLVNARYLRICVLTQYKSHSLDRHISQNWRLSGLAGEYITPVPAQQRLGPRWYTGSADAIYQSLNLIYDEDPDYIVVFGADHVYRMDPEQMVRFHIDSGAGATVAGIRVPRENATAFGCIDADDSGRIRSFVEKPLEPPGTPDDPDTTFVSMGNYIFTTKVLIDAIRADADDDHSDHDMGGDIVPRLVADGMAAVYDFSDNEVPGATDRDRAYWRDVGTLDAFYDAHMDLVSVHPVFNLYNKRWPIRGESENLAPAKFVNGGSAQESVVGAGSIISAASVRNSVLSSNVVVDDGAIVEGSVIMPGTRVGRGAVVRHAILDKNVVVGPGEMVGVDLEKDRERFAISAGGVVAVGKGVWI
experimental setup: read-out: A0.5
recorded endpoint: pEC50
Please treat pEC50 as minus the base-10 logarithm of the molar concentration.

Value lookup for pEC50; key = O=P(O)(O)OC[C@H]1OC(O)[C@H](O)[C@@H](O)[C@@H]1O (stereo partly shown) 3.06

---

tested target: Tre-6P Sase (trehalose-6-phosphate synthase) (Mycobacterium tuberculosis, UniProt P9WN11)
Sequence (P9WN11 whole entry): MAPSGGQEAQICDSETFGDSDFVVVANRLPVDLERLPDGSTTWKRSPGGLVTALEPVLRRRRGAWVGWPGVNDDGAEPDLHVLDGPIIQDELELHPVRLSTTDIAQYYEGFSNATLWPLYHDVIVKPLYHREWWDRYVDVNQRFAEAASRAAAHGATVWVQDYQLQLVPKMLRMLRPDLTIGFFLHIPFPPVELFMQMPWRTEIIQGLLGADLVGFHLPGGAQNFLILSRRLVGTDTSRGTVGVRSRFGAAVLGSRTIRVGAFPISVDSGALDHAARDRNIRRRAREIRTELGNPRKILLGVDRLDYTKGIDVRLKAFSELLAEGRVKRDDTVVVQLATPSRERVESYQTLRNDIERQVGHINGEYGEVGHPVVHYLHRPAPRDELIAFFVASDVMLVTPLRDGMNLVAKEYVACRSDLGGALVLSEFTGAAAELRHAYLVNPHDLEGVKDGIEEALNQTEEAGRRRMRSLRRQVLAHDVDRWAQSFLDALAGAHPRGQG
experimental setup: read-out: A0.5
recorded endpoint: EC50

Value lookup for EC50; key = O=P(O)(O)OC[C@H]1OC(O)(CO)[C@@H](O)[C@@H]1O (stereo partly shown) 330 µM
